Biological target: wild-type mALAS2 (murine erythroid 5-aminolevulinate synthase) (Mus musculus, UniProt P08680, K299V)
Sequence (P08680 79-587 K299V): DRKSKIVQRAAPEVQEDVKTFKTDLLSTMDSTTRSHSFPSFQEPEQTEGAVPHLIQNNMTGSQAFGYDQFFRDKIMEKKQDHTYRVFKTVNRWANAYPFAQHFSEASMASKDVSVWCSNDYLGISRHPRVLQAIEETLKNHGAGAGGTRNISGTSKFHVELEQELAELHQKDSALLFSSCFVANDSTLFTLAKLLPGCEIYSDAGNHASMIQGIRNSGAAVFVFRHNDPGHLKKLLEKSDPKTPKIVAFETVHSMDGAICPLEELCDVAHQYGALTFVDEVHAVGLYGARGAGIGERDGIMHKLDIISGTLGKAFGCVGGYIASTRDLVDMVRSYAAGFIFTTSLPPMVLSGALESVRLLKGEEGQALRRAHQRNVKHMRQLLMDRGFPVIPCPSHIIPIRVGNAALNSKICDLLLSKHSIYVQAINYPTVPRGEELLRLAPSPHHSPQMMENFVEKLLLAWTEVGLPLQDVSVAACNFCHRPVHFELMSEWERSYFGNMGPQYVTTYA
Assay: intrinsic protein fluorescence quenching titration
pKd: −log10 of the molar value.
readoutLabel: pKd

(1) CC(C)(COP(=O)(O)OP(=O)(O)OC[C@H]1O[C@@H](n2cnc3c(N)ncnc32)[C@H](O)[C@@H]1OP(=O)(O)O)[C@@H](O)C(=O)NCCC(=O)NCCS [CoA]
(2) CC(C)(COP(=O)(O)OP(=O)(O)OC[C@H]1O[C@@H](n2cnc3c(N)ncnc32)[C@H](O)[C@@H]1OP(=O)(O)O)[C@@H](O)C(=O)NCCC(=O)NCCSC(=O)CCC(=O)O [succinyl-CoA]
Input line: Kindly identify the item with the lower pKd figure among these two: 1 and 2 State the label of the item chosen.
Output line: 1
(1: 3.37, 2: 3.65)

Taken from paper PMC4615937.
